- Tested on: CCRF-CEM (T-Lymphoblastic Leukemia);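 also: after 72 h of two-drug dosing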
- method description: Bliss excess, mean over the matrix (fraction); higher = more synergy
readout label: Bliss excess
Simply state the number, no unit and no words.

COc1cccc2c1C(=O)c1c(O)c3c(c(O)c1C2=O)C[C@@](O)(C(=O)CO)C[C@@H]3O[C@H]1C[C@H](N)[C@H](O)[C@H](C)O1 [Doxorubicin] + Cc1cc2ncnn2cc1Nc1ncc2c(n1)n(C1CCOCC1)c(=O)n2C [AZD7648] (first compound max 1 µM, 7x7, partner max 10 µM)
0.123

# ---- query molecule ----
[Q] # query: Bliss excess of entry NC1(C(=O)N[C@@H](CCO)c2ccc(Cl)cc2)CCN(c2ncnc3[nH]ccc23)CC1 [Capivasertib] + CC(=O)c1c(C)c2cnc(Nc3ccc(N4CCNCC4)cn3)nc2n(C2CCCC2)c1=O [Palbociclib] (first compound max 10 µM, 7x7, partner max 10 µM)
[A] 0.0861
